System: CD1 mice
Protocol Description: Anticonvulsant activity, 3-mercapto-propionic acid induced seizures
Assay type: in vivo
Test Parameters: Mus musculus; po.; read-out: 3-MPA ED50
Measured Quantity: ED50

Q: Any idea what its ED50 is? The compound is Cc1nnc(N2N=C(c3ccc(N)cc3)c3cc4c(cc3C[C@H]2C)OCO4)s1 [Example 86]
A: 4 mg/kg

Q: Follow-up item: CCc1nnc(N2N=C(c3ccc(N)cc3)c3cc4c(cc3C[C@H]2C)OCO4)s1 [Example 89]
A: > 50 mg/kg

Q: Follow-up item: CCCc1nnc(N2N=C(c3ccc(N)c(C)c3)c3cc4c(cc3C[C@H]2C)OCO4)s1 [Example 166]
A: 9.92 mg/kg

Q: Follow-up item: C[C@@H]1Cc2cc3c(cc2C(c2ccc(N)cc2)=NN1c1nncs1)OCO3 [Example 84]
A: 6.8 mg/kg

Q: Follow-up item: Cc1cc(C2=NN(c3nncs3)[C@H](C)Cc3cc4c(cc32)OCO4)ccc1N [Example 167]
A: 10.3 mg/kg

====

Measured Quantity: melting point

Q: Any idea what its melting point is? The compound is "Cc1nnc(N2N=C(c3ccc(N)c(Cl)c3)c3cc4c(cc3C[C@H]2C)OCO4)s1"
A: 98 to 100 °C

Q: Follow-up item: CC1=NC(N2N=C(c3ccc(N)cc3)c3cc4c(cc3CC2C)OCO4)NN1 (racemic)
A: 166 to 169 °C

Q: Follow-up item: Cc1nc(N2N=C(c3ccc(N)cc3)c3cc4c(cc3CC2C)OCO4)no1 (racemic)
A: 130 to 135 °C

Q: Follow-up item: Cc1cc(C2=NN(C3=NN=C(C(=O)OCc4ccccc4)[SH]3CN)[C@H](C)Cc3cc4c(cc32)OCO4)ccc1[N+](=O)[O-] (stereo partly shown)
A: 240 to 243 °C

====

Answer each item with its documented melting point.

Q: Any idea what its melting point is? The compound is CC(=O)Nc1ccc(C2=NN(c3nc(C)cs3)C(C)Cc3cc4c(cc32)OCO4)cc1 (racemic) (hydrate or solvate) [Example 121]
A: 236 to 238 °C

Q: Follow-up item: CC1Cc2cc3c(cc2C(c2ccc([N+](=O)[O-])cc2)=NN1c1nc(=O)n(C2CC2)s1)OCO3 (racemic) [Example 47]
A: 246 to 247 °C

Q: Follow-up item: CC(=O)Nc1ccc(C2=NN(c3ncc(C)s3)C(C)Cc3cc4c(cc32)OCO4)cc1 (racemic) [Example 120]
A: 176 to 179 °C

Q: Follow-up item: Cc1cc(C2=NN(c3nccs3)C(C)Cc3cc4c(cc32)OCO4)ccc1N (racemic) [Example 75]
A: 225 to 227 °C

Q: Follow-up item: CC(=O)Nc1ccc(C2=NN(C3=NCCS3)[C@H](C)Cc3cc4c(cc32)OCO4)cc1 [Example 125]
A: 143 to 145 °C

Q: Follow-up item: CC1Cc2cc3c(cc2C(c2ccc(N)cc2)=NN1c1nnc(C(F)(F)F)s1)OCO3 (racemic) [Example 90]
A: 216 to 218 °C

Q: Follow-up item: Cc1nnc(N2N=C(c3ccc(N)c(C)c3)c3cc4c(cc3C[C@H]2C)OCO4)s1 [Example 119]
A: 158 to 160 °C

====

System: CD1 mice
Protocol Description: Anticonvulsant activity, 3-mercapto-propionic acid induced seizures
Type: in vivo
Test Parameters: Mus musculus; po.; read-out: 3-MPA ED50
Method: The anti-seizure activity of some of the compounds of the present invention was measured using the electroshock test (J. Pharmacol. Exp. Ther. 106:319 (1952)) and the results are shown in Table 3. […]
Answer each item with its documented ED50.
Give the value, in units of mg/kg, as a plain number.

Q: Any idea what its ED50 is? The molecule is "Cc1nnc(N2N=C(c3ccc(N)c(Cl)c3)c3cc4c(cc3C[C@H]2C)OCO4)s1"
A: 7.57

Q: Follow-up item: "C[C@@H]1Cc2cc3c(cc2C(c2ccc(N)cc2)=NN1c1nccs1)OCO3"
A: 11

Q: Follow-up item: CC(=O)N1N=C(c2ccc(N)cc2)c2cc3c(cc2C[C@H]1C)OCO3 [GYKI 53773, reference compound]
A: 17.1

Q: Follow-up item: "Cc1nnc(N2N=C(c3ccc(N)c(C)c3)c3cc4c(cc3C[C@H]2C)OCO4)s1"
A: 3.37

Q: Follow-up item: "C[C@@H]1Cc2cc3c(cc2C(c2ccc(N)cc2)=NN1C1=NCCS1)OCO3"
A: 34.2

Q: Follow-up item: "COCc1nnc(N2N=C(c3ccc(N)c(C)c3)c3cc4c(cc3C[C@H]2C)OCO4)s1"
A: 4.62

Q: Follow-up item: "CCc1nnc(N2N=C(c3ccc(N)c(C)c3)c3cc4c(cc3C[C@H]2C)OCO4)s1"
A: 8.53
